What follows is a collection of pKi values obtained with D(3) dopamine receptor (Rattus norvegicus).
Sequence (P19020 whole entry): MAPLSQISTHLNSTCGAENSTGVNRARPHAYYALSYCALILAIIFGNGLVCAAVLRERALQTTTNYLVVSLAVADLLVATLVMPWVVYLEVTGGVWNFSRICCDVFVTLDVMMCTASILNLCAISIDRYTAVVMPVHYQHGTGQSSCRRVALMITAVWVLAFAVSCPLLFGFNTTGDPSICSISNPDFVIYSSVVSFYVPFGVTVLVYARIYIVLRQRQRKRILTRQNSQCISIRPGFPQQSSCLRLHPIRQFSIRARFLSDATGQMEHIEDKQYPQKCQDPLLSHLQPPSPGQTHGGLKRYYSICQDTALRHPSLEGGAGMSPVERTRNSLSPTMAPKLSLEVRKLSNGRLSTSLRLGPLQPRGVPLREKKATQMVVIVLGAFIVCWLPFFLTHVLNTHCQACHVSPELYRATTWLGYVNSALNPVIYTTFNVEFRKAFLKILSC
Answers are plain numbers, as −log10 of the molar value.

Examples with answers:
Notebook: CCCN(CCc1ccc(CCN(CCC)[C@H]2CCc3nc(N)sc3C2)cc1)[C@H]1CCc2c(O)cccc2C1 , pKi read as 8.67

Lab note: CCCN(CCc1ccc(CCN(CCC)[C@H]2CCc3c(O)cccc3C2)cc1)[C@H]1CCc2c(O)cccc2C1 gave pKi of 8.41

compound CCCN(CCN1CCN(CCN(CCC)[C@H]2CCc3c(O)cccc3C2)CC1)[C@H]1CCc2c(O)cccc2C1 , pKi observed: 8.45

The reported value for CCCN(CCc1cc(O)c(CCN(CCC)[C@H]2CCc3nc(N)sc3C2)cc1O)[C@H]1CCc2nc(N)sc2C1 in terms of pKi is 8.16

More entries:
The recorded pKi for entry CCCN(CC(=O)N1CCN(C(=O)CN(CCC)[C@H]2CCc3c(O)cccc3C2)CC1)[C@H]1CCc2c(O)cccc2C1 equals 6.94
